- tgt: HLA-A*6802 (human)
- procedure-summary: competition with 125I-labeled probe peptide for purified HLA, gel filtration
- measurement-context: remark: other sources report otherwise
parameter-measured: IC50 (nM)
Response body: numeric value in nM, unit text excluded.

Recorded result, GTPEGDLVYV [Peptide 1418.29] , IC50: 571

Recorded result, QLMFLERAFI [Peptide 1126.16] , IC50: 30

Now for a further binder.
Recorded result, GLPEGDLVYV [Peptide 1389.22] , IC50: 964
